Target: UniProtKB P14842
Sequence (P14842 whole entry): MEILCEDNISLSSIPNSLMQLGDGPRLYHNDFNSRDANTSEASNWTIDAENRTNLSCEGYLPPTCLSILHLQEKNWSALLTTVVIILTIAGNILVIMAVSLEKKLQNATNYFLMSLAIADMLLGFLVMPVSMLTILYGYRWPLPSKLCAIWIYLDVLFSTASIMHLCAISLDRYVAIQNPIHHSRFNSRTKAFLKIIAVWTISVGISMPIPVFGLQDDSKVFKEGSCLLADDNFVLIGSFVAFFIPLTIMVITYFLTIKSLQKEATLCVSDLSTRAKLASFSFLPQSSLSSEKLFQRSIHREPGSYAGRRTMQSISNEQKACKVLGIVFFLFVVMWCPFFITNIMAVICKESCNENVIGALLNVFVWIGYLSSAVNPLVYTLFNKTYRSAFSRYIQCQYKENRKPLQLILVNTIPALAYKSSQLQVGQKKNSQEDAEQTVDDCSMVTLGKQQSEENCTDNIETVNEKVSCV
Assay: Displacement of [3H]ketanserin from rat brain 5HT2A receptor
PARAMETER: log10 Ki (log10 of the value in nM)
Recorded Ki (log10, nM)

CCOc1nc2c(c(=O)n(C)c(=O)n2C)n1CCCN1CCN(c2ccccc2)CC1 : 2.25

Recorded log10 Ki for Cn1c(=O)c2c([nH]c(=O)n2CCCN2CCN(c3ccccc3)CC2)n(C)c1=O with UniProtKB P14842, please?
2.36

Recorded log10 Ki for CCCOc1nc2c(c(=O)n(C)c(=O)n2C)n1CCCCN1CCN(c2ccccc2)CC1 with UniProtKB P14842, please?
1.76

Recorded log10 Ki for CCOc1nc2c(c(=O)n(C)c(=O)n2C)n1CCCCN1CCc2ccccc2C1 with UniProtKB P14842, please?
3.29

Recorded log10 Ki for CCCOc1nc2c(c(=O)n(C)c(=O)n2C)n1CCCN1CCN(c2ccccc2)CC1 with UniProtKB P14842, please?
1.71

Recorded log10 Ki for Cn1c(=O)c2c([nH]c(=O)n2CCCCN2CCN(c3ccccc3)CC2)n(C)c1=O with UniProtKB P14842, please?
2.75

Recorded log10 Ki for CCCOc1nc2c(c(=O)n(C)c(=O)n2C)n1CCCCN1CCN(c2ccccc2OC)CC1 with UniProtKB P14842, please?
2.18

Recorded log10 Ki for CCOc1nc2c(c(=O)n(C)c(=O)n2C)n1CCCCN1CCN(c2ccccc2)CC1 with UniProtKB P14842, please?
2.12

Recorded log10 Ki for CCCOc1nc2c(c(=O)n(C)c(=O)n2C)n1CCCCN1CCc2ccccc2C1 with UniProtKB P14842, please?
2.96

Recorded log10 Ki for CCCOc1nc2c(c(=O)n(C)c(=O)n2C)n1CCCN1CCN(c2cccc(Cl)c2)CC1 with UniProtKB P14842, please?
1.40

* * *

Biological target: 5-hydroxytryptamine receptor 7 (Rattus norvegicus, UniProt P32305)
Sequence (P32305 whole entry): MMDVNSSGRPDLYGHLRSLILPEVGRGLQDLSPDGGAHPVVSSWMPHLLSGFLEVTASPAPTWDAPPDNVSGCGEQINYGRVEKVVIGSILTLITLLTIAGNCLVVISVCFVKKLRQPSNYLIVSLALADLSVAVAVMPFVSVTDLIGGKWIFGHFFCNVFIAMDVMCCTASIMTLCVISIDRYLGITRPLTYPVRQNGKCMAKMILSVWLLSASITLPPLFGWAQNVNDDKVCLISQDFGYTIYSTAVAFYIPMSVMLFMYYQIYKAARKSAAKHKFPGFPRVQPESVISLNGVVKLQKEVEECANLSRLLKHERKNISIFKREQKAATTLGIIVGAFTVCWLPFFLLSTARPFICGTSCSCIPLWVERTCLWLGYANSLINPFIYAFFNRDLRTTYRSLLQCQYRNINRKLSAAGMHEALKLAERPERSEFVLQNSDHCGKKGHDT
Test: Displacement of [3H]5CT from 5HT7 receptor in Wistar rat hyphalamic membrane
Type: cell membranes
// values below are reported Ki
Number in nM, nothing else.

Field: example entries. Status: answers known.
CCOc1nc2c(c(=O)n(C)c(=O)n2C)n1CCCN1CCN(c2cccc(Cl)c2)CC1 : 130
CCOc1nc2c(c(=O)n(C)c(=O)n2C)n1CCCN1CCN(c2ccccc2)CC1 : 477
CCCOc1nc2c(c(=O)n(C)c(=O)n2C)n1CCCN1CCN(c2ccccc2OC)CC1 : 328
CCCOc1nc2c(c(=O)n(C)c(=O)n2C)n1CCCCN1CCN(c2ccccc2)CC1 : 680
CCOc1nc2c(c(=O)n(C)c(=O)n2C)n1CCCN1CCc2ccccc2C1 : 5750

Recorded Ki for Cn1c(=O)c2c([nH]c(=O)n2CCCN2CCN(c3ccccc3)CC2)n(C)c1=O with 5-hydroxytryptamine receptor 7 (Rattus norvegicus, UniProt P32305), please?
13900

Recorded Ki for CCOc1nc2c(c(=O)n(C)c(=O)n2C)n1CCCCN1CCN(c2ccccc2)CC1 with 5-hydroxytryptamine receptor 7 (Rattus norvegicus, UniProt P32305), please?
197

Recorded Ki for CCCOc1nc2c(c(=O)n(C)c(=O)n2C)n1CCCN1CCN(c2cccc(Cl)c2)CC1 with 5-hydroxytryptamine receptor 7 (Rattus norvegicus, UniProt P32305), please?
267

Recorded Ki for CCCOc1nc2c(c(=O)n(C)c(=O)n2C)n1CCCCN1CCN(c2ccccc2OC)CC1 with 5-hydroxytryptamine receptor 7 (Rattus norvegicus, UniProt P32305), please?
160

* * *

Target: 5-hydroxytryptamine receptor 1A (Rattus norvegicus, UniProt P19327)
Sequence (P19327 whole entry): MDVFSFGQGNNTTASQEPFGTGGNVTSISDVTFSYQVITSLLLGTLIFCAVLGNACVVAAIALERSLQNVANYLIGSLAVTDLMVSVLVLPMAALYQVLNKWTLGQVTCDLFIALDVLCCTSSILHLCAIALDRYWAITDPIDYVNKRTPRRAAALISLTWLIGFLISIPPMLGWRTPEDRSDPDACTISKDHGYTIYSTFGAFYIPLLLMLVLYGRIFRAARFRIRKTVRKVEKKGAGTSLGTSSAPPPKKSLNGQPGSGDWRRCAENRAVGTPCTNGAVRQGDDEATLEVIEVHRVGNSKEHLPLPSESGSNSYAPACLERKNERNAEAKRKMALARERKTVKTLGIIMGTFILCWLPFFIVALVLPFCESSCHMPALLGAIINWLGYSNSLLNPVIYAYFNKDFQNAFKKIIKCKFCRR
PARAMETER: Ki (nM)
Number in nM, nothing else.

CCOc1nc2c(c(=O)n(C)c(=O)n2C)n1CCCCN1CCc2ccccc2C1 : 430
CCOc1nc2c(c(=O)n(C)c(=O)n2C)n1CCCCN1CCN(c2ccccc2)CC1 : 67
CCCOc1nc2c(c(=O)n(C)c(=O)n2C)n1CCCCN1CCN(c2ccccc2OC)CC1 : 19
CCCOc1nc2c(c(=O)n(C)c(=O)n2C)n1CCCN1CCN(c2ccccc2)CC1 : 800

Returns the measured Ki for the input compound. Input: CCCOc1nc2c(c(=O)n(C)c(=O)n2C)n1CCCN1CCN(c2cccc(Cl)c2)CC1
288

Returns the measured Ki for the input compound. Input: CCCOc1nc2c(c(=O)n(C)c(=O)n2C)n1CCCCN1CCN(c2ccccc2)CC1
130

Returns the measured Ki for the input compound. Input: CCOc1nc2c(c(=O)n(C)c(=O)n2C)n1CCCN1CCN(c2ccccc2OC)CC1
83

Returns the measured Ki for the input compound. Input: Cn1c(=O)c2c([nH]c(=O)n2CCCCN2CCN(c3cccc(Cl)c3)CC2)n(C)c1=O
260

Returns the measured Ki for the input compound. Input: CCCOc1nc2c(c(=O)n(C)c(=O)n2C)n1CCCCN1CCN(c2cccc(Cl)c2)CC1
15

Returns the measured Ki for the input compound. Input: Cn1c(=O)c2c([nH]c(=O)n2CCCN2CCc3ccccc3C2)n(C)c1=O
6320

Returns the measured Ki for the input compound. Input: CCCOc1nc2c(c(=O)n(C)c(=O)n2C)n1CCCCN1CCc2ccccc2C1
332

Returns the measured Ki for the input compound. Input: Cn1c(=O)c2c([nH]c(=O)n2CCCCN2CCN(c3ccccc3)CC2)n(C)c1=O
1500

Returns the measured Ki for the input compound. Input: CCCOc1nc2c(c(=O)n(C)c(=O)n2C)n1CCCN1CCN(c2ccccc2OC)CC1
314
